Would you kindly list EC50 for each of these compounds?
system-under-test: FXR (Homo sapiens (Human), UniProt Q96RI1)
Sequence (Q96RI1 262-486): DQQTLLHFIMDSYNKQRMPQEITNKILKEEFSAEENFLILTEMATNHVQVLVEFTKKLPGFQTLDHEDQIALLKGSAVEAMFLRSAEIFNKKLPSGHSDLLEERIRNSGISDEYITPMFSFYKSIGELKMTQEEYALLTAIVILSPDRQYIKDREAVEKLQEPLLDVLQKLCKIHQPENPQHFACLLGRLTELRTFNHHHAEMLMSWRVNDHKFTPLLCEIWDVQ
protocol-description: FXR EC50 (FXR agonist activity reported with each example)
Type: cell-based
Express your answer in nM, writing the number without its unit.

Asked: Dear colleague, I am looking for the recorded EC50 of the following compound: O=C(O)c1ccc(OCC23CCC(OCc4c(-c5c(Cl)cccc5Cl)noc4C4CC4)(CC2)CC3)nc1
Given back: 77

Asked: Dear colleague, I am looking for the recorded EC50 of the following compound: O=C(O)c1cc(F)cc(-c2noc(C34CCC(/C=C/c5c(-c6c(Cl)cncc6Cl)noc5C5CC5)(CC3)CC4)n2)c1
Given back: 79

Asked: Dear colleague, I am looking for the recorded EC50 of the following compound: O=C(O)c1cccc(OCC23CCC(OCc4c(-c5c(Cl)cccc5Cl)noc4C4CC4)(CC2)CC3)c1F
Given back: 120

Asked: Dear colleague, I am looking for the recorded EC50 of the following compound: O=C(O)c1c(OC2CCC2)cc(Cl)c2nc(C34CCC(OCc5c(-c6c(Cl)cncc6Cl)noc5C5CC5)(CC3)CC4)ccc12
Given back: 4

Asked: Dear colleague, I am looking for the recorded EC50 of the following compound: O=C(O)c1ccc2c(c1)CCN(C(=O)C13CCC(OCc4c(-c5c(Cl)cccc5Cl)noc4C4CC4)(CC1)CC3)C2
Given back: 1700

Asked: Dear colleague, I am looking for the recorded EC50 of the following compound: O=C(O)c1cc(OC(F)F)c2cc(OCC34CCC(/C=C/c5c(-c6c(Cl)cncc6Cl)noc5C5CC5)(CC3)CO4)ccc2n1
Given back: 250

Asked: Dear colleague, I am looking for the recorded EC50 of the following compound: O=C(O)c1ncc(OCC23CCC(OCc4c(-c5c(Cl)cncc5Cl)noc4C4CC4)(CC2)CC3)c2ccccc12
Given back: 9

Asked: Dear colleague, I am looking for the recorded EC50 of the following compound: O=C(O)c1cccc(-c2noc(C34CCC(OCc5c(-c6c(Cl)cccc6Cl)noc5C5CC5)(CC3)C4)n2)c1
Given back: 300

Asked: Dear colleague, I am looking for the recorded EC50 of the following compound: O=C(O)c1cc(C(F)(F)F)c2cc(OCC34CCC(OCc5c(-c6c(Cl)cncc6Cl)noc5C5CC5)(CC3)CC4)ccc2n1
Given back: 8

Asked: Dear colleague, I am looking for the recorded EC50 of the following compound: Cc1cc(C(=O)O)ncc1C#CC12CCC(OCc3c(-c4c(Cl)cncc4Cl)noc3C3CC3)(CC1)CC2
Given back: 57

Asked: Dear colleague, I am looking for the recorded EC50 of the following compound: O=C(O)c1cc(OCC23CCC(/C=C/c4c(-c5c(Cl)cncc5Cl)noc4C4CC4)(CC2)CC3)cc(OC(F)F)c1
Given back: 16

Asked: Dear colleague, I am looking for the recorded EC50 of the following compound: O=C(O)c1cccc2nc(C34CCC(C=Cc5c(-c6ccccc6OC(F)(F)F)noc5C5CC5)(CC3)CC4)sc12 [Example 183]
Given back: 13

Asked: Dear colleague, I am looking for the recorded EC50 of the following compound: Cc1cc(OCC23CCC(OCc4c(-c5c(Cl)cncc5Cl)noc4C4CC4)(CC2)CC3)cc(C(=O)O)c1
Given back: 7

Asked: Dear colleague, I am looking for the recorded EC50 of the following compound: O=C(O)c1cccc2nc(C34CCC(C=Cc5c(-c6ccccc6OC(F)(F)F)noc5C5CC5)(CC3)CC4)sc12 [Example 186]
Given back: 67

Asked: Dear colleague, I am looking for the recorded EC50 of the following compound: O=C(O)c1cc2ccc(OCC34CCC(OCc5c(-c6c(Cl)cncc6Cl)noc5C5CC5)(CC3)CC4)cc2cn1
Given back: 96

Asked: Dear colleague, I am looking for the recorded EC50 of the following compound: CC(C)c1onc(-c2ccccc2OC(F)(F)F)c1COC12CCC(c3nc(-c4ccc(C(=O)O)cc4)no3)(CC1)CC2
Given back: 980

Asked: Dear colleague, I am looking for the recorded EC50 of the following compound: O=C(O)c1cc(OC(CO)CCl)c2cc(OCC34CCC(OCc5c(-c6c(Cl)cncc6Cl)noc5C5CC5)(CC3)CC4)ccc2n1 (stereo not drawn)
Given back: 200

Asked: Dear colleague, I am looking for the recorded EC50 of the following compound: N#Cc1cc(C(F)(F)F)cc(C23CCC(COCc4c(-c5c(Cl)cncc5Cl)noc4C4CC4)(CC2)CO3)c1
Given back: 2400

Asked: Dear colleague, I am looking for the recorded EC50 of the following compound: COc1cncc(Cl)c1-c1noc(C2CC2)c1COC12CCC(COc3cc(OC)c4cc(C(=O)O)ccc4n3)(CC1)CC2
Given back: 890

Asked: Dear colleague, I am looking for the recorded EC50 of the following compound: COCc1cc(OCC23CCC(OCc4c(-c5c(Cl)cncc5Cl)noc4C4CC4)(CC2)CC3)cnc1C(=O)O
Given back: 16

Asked: Dear colleague, I am looking for the recorded EC50 of the following compound: O=C(O)c1cccc(-c2noc(C34CC(COCc5c(-c6c(Cl)cccc6Cl)noc5C5CC5)(C3)C4)n2)c1
Given back: 1700

Asked: Dear colleague, I am looking for the recorded EC50 of the following compound: O=C(O)c1cccc(-c2noc(C34CCC(OCc5c(-c6ccccc6OC(F)(F)F)noc5C5CC5)(CC3)CC4)n2)c1
Given back: 110

Asked: Dear colleague, I am looking for the recorded EC50 of the following compound: Cc1nc(C23CCC(/C=C/c4c(-c5c(Cl)cncc5Cl)noc4C4CC4)(CC2)CC3)sc1C(=O)O
Given back: 40

Asked: Dear colleague, I am looking for the recorded EC50 of the following compound: O=C(O)c1cccc(-c2noc(C34CCC(OCc5c(-c6ccccc6OC(F)(F)F)noc5C5CC5)(CC3)CC4)n2)n1
Given back: 550

Asked: Dear colleague, I am looking for the recorded EC50 of the following compound: COc1cc(C(=O)O)c(F)c(-c2noc(C34CCC(OCc5c(-c6c(Cl)cncc6Cl)noc5C5CC5)(CC3)CC4)n2)c1
Given back: 230

Asked: Dear colleague, I am looking for the recorded EC50 of the following compound: O=C(O)c1ccc(-c2noc(C34CCC(COCc5c(-c6ccccc6OC(F)(F)F)noc5C5CC5)(CC3)CC4)n2)cc1
Given back: 960

Asked: Dear colleague, I am looking for the recorded EC50 of the following compound: COc1ccc(C(=O)O)c2ccc(OCC34CCC(OCc5c(-c6c(Cl)cncc6Cl)noc5C5CC5)(CC3)CC4)nc12
Given back: 33
